Cited source for all entries: ChEMBL document CHEMBL1151756

System: Human immunodeficiency virus 1
experiment_notes: Antiviral activity against HIV1 3B in human MT2 cells assessed as inhibition of p24 antigen level after 4 days by ELISA
Assay type: functional, organism-based
condition_set: Human immunodeficiency virus 1, 3B, MT2, 96 h
pEC50: −log10 of the molar value.
Answer class 0 if pEC50 is under 4, and class 1 if it is 4 or more.

# example entries with known answers
1) O=C(O)c1cc(N2C(=O)CSC2=S)ccc1Cl :: class 0
2) O=C(O)c1ccc(Cn2cccc2)cc1 :: class 1
3) O=C(O)c1ccc(-c2noc(C(F)(F)F)n2)cc1 :: class 1
4) O=C(O)c1cc(-n2cccc2)ccc1O :: class 1
5) CCOC(=O)c1ccc(-c2noc(CO)n2)cc1 :: class 0

Tell me whether pEC50 is at least 4 here: Cc1ccc(C)n1-c1cccc(-c2nnn[nH]2)c1
class 1

---

System: MT2
experiment_notes: Cytotoxicity against human MT2 cells after 4 days by XTT assay
Format: cell-based
condition_set: mt2, 96 h
Cut-off 200 µM on CC50: below means Satisfied, at or above means Not satisfied.

# example entries with known answers
1. c1cc(-c2nnn[nH]2)cc(-n2cccc2)c1 :: Not satisfied
2. O=C1CSC(=S)N1c1ccc(O)cc1 :: Satisfied
3. O=C(O)c1ccc(-c2noc(CCl)n2)cc1 :: Satisfied
4. O=C(O)c1cccc(-c2noc(C(F)(F)F)n2)c1 :: Not satisfied
5. O=C(O)c1ccc(-c2noc(CO)n2)cc1 :: Not satisfied

# ---- query compound ----
Quick check: does O=C(O)c1cc(N2C(=O)CSC2=S)ccc1Cl have CC50 under 200 µM?
Satisfied

---

experiment_notes: Selectivity index, ratio of CC50 for human MT2 cells to EC50 for HIV1 3B
Type: toxicity, cell-based
condition_set: read-out: Ratio CC50/EC50
measured_quantity: selectivity ratio
I'd appreciate a reply containing only the number, no unit.

1. CCOC(=O)c1ccc(-c2noc(CO)n2)cc1 :: 1.03

Record request: selectivity ratio value, item O=C(O)c1ccc(-c2noc(CO)n2)cc1
2.98

Queued: O=C(O)c1cccc(-n2cccc2)c1
6.74

Queued: O=C(O)c1cc(N2C(=O)CSC2=S)ccc1O
0.92

Queued: O=C(O)c1cccc(-c2noc(CCl)n2)c1
1.12

---

Tested on: MT2
experiment_notes: Cytotoxicity against human MT2 cells after 4 days by XTT assay
Type: cell-based
condition_set: mt2, 96 h
Recorded CC50 for the following compounds
Value expressed in µM; do not type the unit.

Before answering, review these 5 worked examples.
1) O=C1CSC(=S)N1c1cccc(C(F)(F)F)c1 :: 85.4
2) COc1ccc(N2C(=O)CSC2=S)cc1 :: 89.6
3) O=C(O)c1cccc(-c2noc(CCl)n2)c1 :: 64.9
4) O=C(O)c1cc(N2C(=O)CSC2=S)ccc1O :: 152
5) Cc1ccc(C)n1-c1ccc(Cl)c(C(=O)O)c1 :: 211

Record request: CC50 value, item O=C(O)c1cccc(N2C(=O)CSC2=S)c1
165

Queued: COC(=O)c1ccc(-c2noc(CSC#N)n2)cc1
43.7

Queued: COC(=O)c1ccc(N2C(=O)C=CC2=O)cc1O
66.2

Queued: N#CSCc1nc(-c2ccc(C(=O)O)cc2)no1
383

Queued: CCOC(=O)c1ccc(-c2noc(CO)n2)cc1
385

Queued: Cc1ccc(C)n1-c1ccc(S(N)(=O)=O)cc1
117

Queued: O=C(O)c1ccc(-c2noc(CBr)n2)cc1
81.9

Queued: COC(=O)c1ccc(-c2noc(CCl)n2)cc1
14.2

Queued: Cc1ccc(C)n1-c1cccc(C(=O)O)c1
88.4

Queued: Cc1ccc(C)n1-c1cccc(-c2nnn[nH]2)c1
249

Queued: O=C(O)c1ccc(-c2noc(C(F)(F)F)n2)cc1
82.2

Queued: Cc1ccc(C)n1-c1ccc(O)c(C(=O)O)c1
133

Queued: O=C(O)c1ccc(N2C(=O)CSC2=S)cc1
143

Queued: O=C(O)c1ccc(-n2cccc2)cc1O
443

Queued: O=C(O)c1cc(-n2cccc2)ccc1Cl
336

Queued: Cc1ccc(C)n1-c1ccc(C(=O)O)cc1
136

Queued: O=C(O)c1cccc(-n2cccc2)c1
302

Queued: COC(=O)c1ccc(-n2cccc2)cc1O
379

Queued: COC(=O)c1ccc(-c2noc(CBr)n2)cc1
32.7

Queued: COC(=O)c1ccc(-n2c(C)ccc2C)cc1O
88.9

---

experiment_notes: Selectivity index, ratio of CC50 for human MT2 cells to EC50 for HIV1 3B
Type: toxicity, cell-based
condition_set: read-out: Ratio CC50/EC50
Answer -1 if selectivity ratio is under 5, and 1 if it is 5 or more.

1) O=C(O)c1ccc(-c2noc(CCl)n2)cc1 :: 1
2) O=C(O)c1ccc(N2C(=O)CSC2=S)cc1 :: -1

Tell me whether selectivity ratio is at least 5 here: Cc1ccc(C)n1-c1ccc(C(=O)O)cc1
-1

Queued: c1cc(-c2nnn[nH]2)cc(-n2cccc2)c1
1

---

Recorded pEC50 for the following molecules
System: Human immunodeficiency virus 1
experiment_notes: Antiviral activity against HIV1 3B in human MT2 cells assessed as inhibition of p24 antigen level after 4 days by ELISA
Format: functional, organism-based
condition_set: Human immunodeficiency virus 1, 3B, MT2, 96 h
Just the number, please; pEC50 means minus log10 of the concentration in mol/L.

1. Cc1ccc(C)n1-c1ccc(O)c(C(=O)O)c1 :: 6.16
2. Cc1ccc(C)n1-c1ccc(C(=O)O)cc1 :: 3.76
3. O=C1CSC(=S)N1c1ccc(O)cc1 :: 4.45
4. O=C(O)c1ccc(-n2cccc2)cc1 :: 4.16
5. O=C(O)c1cc(N2C(=O)CSC2=S)ccc1O :: 3.78
6. c1cc(-c2nnn[nH]2)cc(-n2cccc2)c1 :: 4.39
7. O=C(O)c1cccc(-c2noc(CCl)n2)c1 :: 4.24
8. COC(=O)c1ccc(-n2cccc2)cc1O :: 4.45
9. O=C(O)c1ccc(-c2noc(CBr)n2)cc1 :: 3.90
10. O=C(O)c1cccc(-n2cccc2)c1 :: 4.35

Record request: pEC50 value, item O=C(O)c1ccc(N2C(=O)C=CC2=O)cc1
3.69

Queued: COc1ccc(N2C(=O)CSC2=S)cc1
4.20

---

Test system: Human immunodeficiency virus 1
experiment_notes: Antiviral activity against HIV1 3B in human MT2 cells assessed as inhibition of p24 antigen level after 4 days by ELISA
Assay type: functional, organism-based
condition_set: Human immunodeficiency virus 1, 3B, MT2, 96 h
Label scheme, based on EC50: low value = under 9 µM, medium value = from 9 µM up to 80 µM, high value = 80 µM and over

# example entries with known answers
1. COC(=O)c1ccc(-c2noc(CCl)n2)cc1 :: medium value
2. Cc1ccc(C)n1-c1ccc(Cl)c(C(=O)O)c1 :: low value
3. O=C(O)c1ccc(-c2noc(CCl)n2)cc1 :: low value
4. COC(=O)c1ccc(-c2noc(CBr)n2)cc1 :: high value
5. O=C(O)c1ccc(-c2noc(CO)n2)cc1 :: high value
6. Cc1ccc(C)n1-c1ccc(Cl)cc1C(=O)O :: low value
7. N#CSCc1nc(-c2ccc(C(=O)O)cc2)no1 :: medium value
8. COC(=O)c1ccc(N2C(=O)C=CC2=O)cc1O :: medium value

# ---- query compound ----
Category of Cc1ccc(C)n1-c1ccc(CC(=O)O)cc1 :
low value

---

Recorded pEC50 for the following compounds
Tested on: Human immunodeficiency virus 1
experiment_notes: Antiviral activity against HIV1 3B in human MT2 cells assessed as inhibition of p24 antigen level after 4 days by ELISA
Assay type: functional, organism-based
condition_set: Human immunodeficiency virus 1, 3B, MT2, 96 h
Just the number, please; pEC50 means minus log10 of the concentration in mol/L.

Before answering, review these 5 worked examples.
1. Cc1ccc(C)n1-c1ccc(S(N)(=O)=O)cc1 :: 4.00
2. COC(=O)c1ccc(-c2noc(CSC#N)n2)cc1 :: 4.96
3. Cc1ccc(C)n1-c1cccc(C(=O)O)c1 :: 4.93
4. O=C(O)Cc1ccc(-n2cccc2)cc1 :: 3.43
5. O=C1CSC(=S)N1c1cccc(C(F)(F)F)c1 :: 3.94

Kindly state the measured pEC50 obtained for O=C(O)c1ccc(N2C(=O)CSC2=S)cc1 with Human immunodeficiency virus 1.
3.59

---

experiment_notes: Selectivity index, ratio of CC50 for human MT2 cells to EC50 for HIV1 3B
Format: toxicity, cell-based
condition_set: read-out: Ratio CC50/EC50
Recorded selectivity ratio for the following compounds
I'd appreciate a reply containing only the number, no unit.

Before answering, review these 2 worked examples.
1. COc1ccc(N2C(=O)CSC2=S)cc1 :: 1.41
2. Cc1ccc(C)n1-c1ccc(S(N)(=O)=O)cc1 :: 1.18

Record request: selectivity ratio value, item Cc1ccc(C)n1-c1cccc(C(=O)O)c1
7.49

Queued: Cc1ccc(C)n1-c1cccc(-c2nnn[nH]2)c1
32.4

Queued: O=C(O)c1ccc(-c2noc(C(F)(F)F)n2)cc1
26.9

Queued: COC(=O)c1ccc(-c2noc(CCl)n2)cc1
0.34
